Tested on: Mus musculus
Assay: Anticonvulsant activity in Swiss mouse assessed as protection against seizures at 300 mg/kg, ip dosed 1 hr before initiation of maximal electroconvulsions by maximal electroshock test
Assay type: functional
The following compounds are listed with their measured Activity values.
Express it in %; write the number only.

Completed entries (count: 3):
>>> recordedresult("CC(C(=O)N1CCN(c2ccccc2C(F)(F)F)CC1)N1C(=O)CCC1=O (racemic)")
75
>>> recordedresult("CCC(C(=O)N1CCN(c2ccccc2Cl)CC1)N1C(=O)CCC1=O (racemic)")
50
>>> recordedresult("COc1cccc(N2CCN(C(=O)C(C)N3C(=O)CCC3=O)CC2)c1 (racemic)")
0

Prompt: Short answer please: Activity, Mus musculus, entry CCC(C(=O)N1CCN(c2ccccc2F)CC1)N1C(=O)CCC1=O (racemic)
Completion: 50

Prompt: Same question for CC(C(=O)N1CCN(c2cccc(Cl)c2)CC1)N1C(=O)CCC1=O (racemic) please.
Completion: 75

Prompt: Same question for CC(C(=O)N1CCN(c2ccc(F)cc2)CC1)N1C(=O)CCC1=O (racemic) please.
Completion: 25

Prompt: Same question for CCC(C(=O)N1CCN(c2ccc(C(F)(F)F)cc2)CC1)N1C(=O)CCC1=O (racemic) please.
Completion: 0

Prompt: Same question for CCC(C(=O)N1CCN(c2ccc(Cl)cc2)CC1)N1C(=O)CCC1=O (racemic) please.
Completion: 25

Prompt: Same question for CC(C(=O)N1CCN(c2cccc(C(F)(F)F)c2)CC1)N1C(=O)CCC1=O (racemic) please.
Completion: 100

Prompt: Same question for CC(C(=O)N1CCN(c2ccccc2)CC1)N1C(=O)CCC1=O (racemic) please.
Completion: 50

Prompt: Same question for CC(C(=O)N1CCN(c2ccccc2Cl)CC1)N1C(=O)CCC1=O (racemic) please.
Completion: 25

Prompt: Same question for CC(C(=O)N1CCOCC1)N1C(=O)CCC1=O (racemic) please.
Completion: 0

###

Tested on: Mus musculus
Assay: Anticonvulsant activity in ip dosed Swiss mouse assessed as protection against seizures measured at 0.25 hrs of time to peak effect by subcutaneous pentylenetetrazole seizure test
Type: functional
The following compounds are listed with their measured ED50 values.
Express it in mg/kg; write the number only.

>>> recordedresult("CC(C(=O)N1CCN(c2ccccc2C(F)(F)F)CC1)N1C(=O)CCC1=O (racemic)")
87.1
>>> recordedresult("CCC(C(=O)N1CCN(c2cccc(C(F)(F)F)c2)CC1)N1C(=O)CCC1=O (racemic)")
83.2

Prompt: Short answer please: ED50, Mus musculus, entry CCC1(C)CC(=O)NC1=O (centres undefined) [ETHOSUXIMIDE]
Completion: 148

###

Target: CYP3A4 (Homo sapiens, UniProt P08684)
Sequence (P08684 whole entry): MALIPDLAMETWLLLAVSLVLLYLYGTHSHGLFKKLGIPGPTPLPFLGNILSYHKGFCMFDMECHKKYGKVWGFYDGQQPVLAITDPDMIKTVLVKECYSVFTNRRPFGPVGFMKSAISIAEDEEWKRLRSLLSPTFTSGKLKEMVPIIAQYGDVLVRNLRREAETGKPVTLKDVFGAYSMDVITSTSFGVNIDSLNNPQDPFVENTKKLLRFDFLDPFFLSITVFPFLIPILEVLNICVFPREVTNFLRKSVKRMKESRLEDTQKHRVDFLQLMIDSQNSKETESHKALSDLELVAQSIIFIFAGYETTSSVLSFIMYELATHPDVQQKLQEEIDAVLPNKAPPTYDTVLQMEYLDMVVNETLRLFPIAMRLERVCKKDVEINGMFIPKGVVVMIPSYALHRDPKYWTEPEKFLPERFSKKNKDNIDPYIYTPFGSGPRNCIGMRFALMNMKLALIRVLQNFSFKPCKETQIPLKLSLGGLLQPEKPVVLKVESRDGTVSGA
Experiment: Inhibition of human recombinant CYP3A4 assessed as remaining enzyme activity by measuring conversion of luciferin-PPXE into D-luciferin at 25 uM by luminescence CYP3A4 P450-Glo assay relative to untreated control
Format: ADME
Settings: recombinant CYP3A4, probe luciferin-PPXE, read-out: Activity
endpointLabel: activity at 25 µM (%)
Express it in %; write the number only.

Prompt: Entry CC(C(=O)N1CCN(c2cccc(C(F)(F)F)c2)CC1)N1C(=O)CCC1=O (racemic) has what activity at 25 µM?
Completion: 68.4

###

Experiment: Ratio of IC50 for test compound to IC50 for doxorubicin against HEK293 cells assessed as reduction in cell viability after 48 hrs by EZ4U label based assay
Settings: human, read-out: Ratio IC50
endpointLabel: selectivity ratio at 48 h
Give only the figure.

Prompt: Entry CC(C(=O)N1CCN(c2cccc(C(F)(F)F)c2)CC1)N1C(=O)CCC1=O (racemic) has what selectivity ratio at 48 h?
Completion: 100

###

Organism: Rattus norvegicus
Test: Inhibition of [3H]BTX binding to sodium channel site 2 in rat cerebral cortex synaptosomes at 500 uM incubated for 60 mins by scintillation counting based radioligand displacement assay
Format: subcellular
endpointLabel: inhibition (%)
Express it in %; write the number only.

Completed entries (count: 3):
>>> recordedresult("NC(=O)N1c2ccccc2C=Cc2ccccc21")
33.6
>>> recordedresult("COCC(C(=O)N1CCN(c2cccc(C(F)(F)F)c2)CC1)N1C(=O)CCC1=O (racemic)")
77.6
>>> recordedresult("CCC(C(=O)N1CCN(c2cccc(C(F)(F)F)c2)CC1)N1C(=O)CCC1=O (racemic)")
69.5

Prompt: Entry CC(C(=O)N1CCN(c2cccc(C(F)(F)F)c2)CC1)N1C(=O)CCC1=O (racemic) has what inhibition?
Completion: 62.3

###

The following compounds are listed with their measured TD50 at 0.5 h values.
Assay: Toxicity in ip dosed Swiss mouse assessed as induction of motor performance impairment measured within 60 seconds measured at 0.5 hrs of time to peak effect by Chimney test
Format: organism-based
Settings: in vivo
Express it in mg/kg; write the number only.

Completed entries (count: 3):
>>> recordedresult("COC[C@@H](NC(C)=O)C(=O)NCc1ccccc1 [LACOSAMIDE]")
33.7
>>> recordedresult("CC(C(=O)N1CCN(c2cccc(Cl)c2)CC1)N1C(=O)CCC1=O (racemic)")
202
>>> recordedresult("COCC(C(=O)N1CCN(c2cccc(C(F)(F)F)c2)CC1)N1C(=O)CCC1=O (racemic)")
197

Okay, next one:
Prompt: Entry CCC(C(=O)N1CCN(c2cccc(C(F)(F)F)c2)CC1)N1C(=O)CCC1=O (racemic) has what TD50 at 0.5 h?
Completion: 173

###

Assay: Protective index, ratio of neurotoxic TD50 in Swiss mouse by Chimney test to anticonvulsant ED50 in Swiss mouse measured at 1 hr of time to peak effect by 6 Hz test by 6 Hz psychomotor seizure test
Format: toxicity
Conditions: in vivo, read-out: Ratio TD50/ED50
endpointLabel: selectivity ratio at 1 h
Give only the figure.

Prompt: Entry CC(C(=O)N1CCN(c2cccc(C(F)(F)F)c2)CC1)N1C(=O)CCC1=O (racemic) has what selectivity ratio at 1 h?
Completion: 23.5

###

The following molecules are listed with their measured Activity values.
Test system: Mus musculus
Experiment: Anticonvulsant activity in Swiss mouse assessed as protection against seizures at 300 mg/kg, ip dosed 0.25 hrs before pentylenetetrazole challenge by subcutaneous pentylenetetrazole seizure test
Assay type: functional
Form field: result (number plus unit)

>>> recordedresult("COCC(C(=O)N1CCN(c2cccc(C(F)(F)F)c2)CC1)N1C(=O)CCC1=O (racemic)")
"100%"
>>> recordedresult("CCC(C(=O)N1CCN(c2cccc(C(F)(F)F)c2)CC1)N1C(=O)CCC1=O (racemic)")
"100%"
>>> recordedresult("CC(C(=O)N1CCN(c2cccc(Cl)c2)CC1)N1C(=O)CCC1=O (racemic)")
"75%"

Prompt: Entry CC(C(=O)N1CCN(c2cccc(C(F)(F)F)c2)CC1)N1C(=O)CCC1=O (racemic) has what Activity?
Completion: 100%

Prompt: Same question for CC(C(=O)N1CCN(c2ccccc2C(F)(F)F)CC1)N1C(=O)CCC1=O (racemic) please.
Completion: 100%

###

Experiment: Toxicity in ip dosed Swiss mouse assessed as induction of motor performance impairment measured within 60 seconds measured at 1 hr of time to peak effect by Chimney test
Format: organism-based
Details: in vivo
endpointLabel: TD50 at 1 h (mg/kg)
Express it in mg/kg; write the number only.

Prompt: Entry CC(C(=O)N1CCN(c2cccc(C(F)(F)F)c2)CC1)N1C(=O)CCC1=O (racemic) has what TD50 at 1 h?
Completion: 824

###

Species: Mus musculus
Experiment: Protective index, ratio of neurotoxic TD50 in Swiss mouse by Chimney test to anticonvulsant ED50 in Swiss mouse measured at 0.5 hrs of time to peak effect by maximal electroshock test
The following compounds are listed with their measured Ratio TD50/ED50 values.
Give only the figure.

>>> recordedresult("CC(C(=O)N1CCN(c2cccc(Cl)c2)CC1)N1C(=O)CCC1=O (racemic)")
1.69
>>> recordedresult("CCC(C(=O)N1CCN(c2cccc(C(F)(F)F)c2)CC1)N1C(=O)CCC1=O (racemic)")
1.88
>>> recordedresult("COC[C@@H](NC(C)=O)C(=O)NCc1ccccc1 [LACOSAMIDE]")
3.6

Prompt: Entry COCC(C(=O)N1CCN(c2cccc(C(F)(F)F)c2)CC1)N1C(=O)CCC1=O (racemic) has what Ratio TD50/ED50?
Completion: 2.32

###

Species: Rattus norvegicus
Assay: Inhibition of [3H]BTX binding to sodium channel site 2 in rat cerebral cortex synaptosomes at 100 uM incubated for 60 mins by scintillation counting based radioligand displacement assay
Assay type: subcellular
The following molecules are listed with their measured inhibition values.

>>> recordedresult("CC(C(=O)N1CCN(c2cccc(C(F)(F)F)c2)CC1)N1C(=O)CCC1=O (racemic)")
"37.4%"
>>> recordedresult("NC(=O)N1c2ccccc2C=Cc2ccccc21")
"17.4%"
>>> recordedresult("CCC(C(=O)N1CCN(c2cccc(C(F)(F)F)c2)CC1)N1C(=O)CCC1=O (racemic)")
"8.8%"

Prompt: Entry COCC(C(=O)N1CCN(c2cccc(C(F)(F)F)c2)CC1)N1C(=O)CCC1=O (racemic) has what inhibition?
Completion: 38.7%

// data source = ChEMBL document CHEMBL3580554
